# ASSAY_TARGET: hMC4-R (Homo sapiens (Human), UniProt P32245)
# Sequence (P32245 whole entry): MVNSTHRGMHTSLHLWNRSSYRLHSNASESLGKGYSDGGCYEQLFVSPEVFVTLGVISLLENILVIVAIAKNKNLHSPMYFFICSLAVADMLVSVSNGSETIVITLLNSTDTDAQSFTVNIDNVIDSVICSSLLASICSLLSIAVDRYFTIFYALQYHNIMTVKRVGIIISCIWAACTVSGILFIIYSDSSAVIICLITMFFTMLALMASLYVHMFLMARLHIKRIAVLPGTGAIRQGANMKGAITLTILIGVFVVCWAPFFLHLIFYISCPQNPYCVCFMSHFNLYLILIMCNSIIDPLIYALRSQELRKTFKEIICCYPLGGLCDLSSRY
# ASSAY_METHOD_TEXT: High and low density hMC4-R functional assay (cAMP, HEK293-T-REx-MC4-R cells)
# Type: cell-based
# CONDITION_NOTES: 0.1 ng/mL Doxycycline (low density hMC4-R system); NDP-α-MSH = 100%; read-out: Intrinsic Activity (%)
MEASURE: Emax (%)

Example compounds with recorded Emax:
COMPOUND	Emax, %
CC(=O)N[C@@H](CCCNC(=N)N)C(=O)N[C@H]1CCC(=O)NCCC[C@@H](C(N)=O)NC(=O)[C@H](Cc2c[nH]c3ccccc23)NC(=O)[C@H](CCCNC(=N)N)NC(=O)[C@@H](Cc2ccc(F)cc2)NC(=O)[C@H](CO)NC1=O [Example 65]	58
CC(=O)N[C@@H](CCCNC(=N)N)C(=O)N[C@H]1CC(=O)NCCCC[C@@H](C(N)=O)NC(=O)[C@H](Cc2c[nH]c3ccccc23)NC(=O)[C@H](CCCNC(=N)N)NC(=O)[C@@H](Cc2ccc(C#N)cc2)NC(=O)[C@H](CCC(N)=O)NC1=O [Example 90]	31

P = CC(=O)N[C@@H](CCCNC(=N)N)C(=O)N[C@H]1CCC(=O)NCCC[C@@H](C(N)=O)NC(=O)[C@H](Cc2c[nH]c3ccccc23)NC(=O)[C@H](CCCNC(=N)N)NC(=O)[C@@H](Cc2cccc(Cl)c2)NC(=O)[C@H](CCCN)NC1=O [Example 101]
Q = CC(=O)N[C@@H](CCCNC(=N)N)C(=O)N[C@H]1CCC(=O)NCCC[C@@H](C(N)=O)NC(=O)[C@H](Cc2c[nH]c3ccccc23)NC(=O)[C@H](CCCNC(=N)N)NC(=O)[C@@H](Cc2ccccc2C#N)NC(=O)[C@H](CCN)NC1=O [Example 12]
Pick one: P or Q . Which one has the lower reported Emax? Respond with the label that goes with your answer.
P
(P: 36%, Q: 64%)
